These entries and their values trace back to ChEMBL document CHEMBL5365453.

Reported remaining at 0.5 h values follow for various molecules
- Assay remarks: Stability in human liver microsomes assessed as compound remaining measured after 30 mins
- Assay type: ADME, Microsome
- Condition details: read-out: Stability

>  <Smiles input>
CCn1c(=O)[nH]c(=O)c2c1nc(Cc1cn3ccsc3n1)n2CC(=O)c1ccc(O)cc1

>  <Output unit>
%

>  <remaining at 0.5 h>
80.4

$$$$
>  <Smiles input>
CCn1c(=O)[nH]c(=O)c2c1nc(Cc1cn3ccsc3n1)n2CC(=O)c1ccc(OC)cc1

>  <Output unit>
%

>  <remaining at 0.5 h>
69

$$$$
>  <Smiles input>
CCn1c(=O)[nH]c(=O)c2c1nc(Cc1cn3ccsc3n1)n2CC(=O)c1ccc(N)cc1

>  <Output unit>
%

>  <remaining at 0.5 h>
95.3

$$$$
>  <Smiles input>
CCn1c(=O)[nH]c(=O)c2c1nc(Cc1cn3ccsc3n1)n2CC(=O)c1ccc(CO)cc1

>  <Output unit>
%

>  <remaining at 0.5 h>
91.5

$$$$

---

- Assay remarks: Stability in mouse liver microsomes assessed as compound remaining measured after 30 mins
- Assay type: ADME, Microsome
- Condition details: read-out: Stability
Outcome measure: remaining at 0.5 h

>  <Smiles input>
CCn1c(=O)[nH]c(=O)c2c1nc(Cc1cn3ccsc3n1)n2CC(=O)c1ccc(N)cc1

>  <Result>
80.8%

$$$$
>  <Smiles input>
CCn1c(=O)[nH]c(=O)c2c1nc(Cc1cn3ccsc3n1)n2CC(=O)c1ccc(CO)cc1

>  <Result>
85.2%

$$$$
>  <Smiles input>
CCn1c(=O)[nH]c(=O)c2c1nc(Cc1cn3ccsc3n1)n2CC(=O)c1ccc(O)cc1

>  <Result>
77.3%

$$$$
>  <Smiles input>
CCn1c(=O)[nH]c(=O)c2c1nc(Cc1cn3ccsc3n1)n2CC(=O)c1ccc(OC)cc1

>  <Result>
30%

$$$$

---

- Target: Tryptophan 5-hydroxylase 1 (Homo sapiens) (UniProt P17752)
- Sequence (P17752 whole entry): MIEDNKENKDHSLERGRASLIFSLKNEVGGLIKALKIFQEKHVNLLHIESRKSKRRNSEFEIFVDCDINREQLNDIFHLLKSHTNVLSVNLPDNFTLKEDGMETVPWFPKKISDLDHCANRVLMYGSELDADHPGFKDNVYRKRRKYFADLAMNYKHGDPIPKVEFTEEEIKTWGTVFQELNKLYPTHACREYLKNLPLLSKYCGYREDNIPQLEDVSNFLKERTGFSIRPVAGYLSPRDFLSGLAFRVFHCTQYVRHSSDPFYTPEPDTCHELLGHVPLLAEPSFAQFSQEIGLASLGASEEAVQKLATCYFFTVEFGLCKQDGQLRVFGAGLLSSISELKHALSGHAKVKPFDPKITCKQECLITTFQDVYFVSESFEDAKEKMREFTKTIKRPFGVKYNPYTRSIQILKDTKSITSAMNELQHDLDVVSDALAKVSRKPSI
- Assay remarks: Inhibition of TPH1 ( unknown origin ) at 1 uM relative to control
Binary call on inhibition: Condition met from 40% upward, Condition not met beneath that.

>  <Molecule>
CCn1c(=O)[nH]c(=O)c2c1nc(Cc1cn3ccsc3n1)n2CC(=O)c1ccc(OC)cc1

>  <Class>
Condition met

$$$$
>  <Molecule>
CCn1c(=O)[nH]c(=O)c2c1nc(Cc1cn3ccsc3n1)n2CC(=O)c1ccc(N=[N+]=[N-])cc1

>  <Class>
Condition met

$$$$
>  <Molecule>
CCn1c(=O)[nH]c(=O)c2c1nc(Cc1ccccc1)n2Cc1ccccc1

>  <Class>
Condition not met

$$$$
>  <Molecule>
CCn1c(=O)[nH]c(=O)c2c1nc(Cc1cn3ccsc3n1)n2CC(=O)Nc1ccc(OC)cc1

>  <Class>
Condition not met

$$$$
>  <Molecule>
CCn1c(=O)[nH]c(=O)c2c1nc(Cc1cn3ccsc3n1)n2C/C(=N/O)c1ccc(OC)cc1

>  <Class>
Condition not met

$$$$
>  <Molecule>
CCn1c(=O)[nH]c(=O)c2c1nc(Cc1cn3ccsc3n1)n2CC(O)c1ccc(Cl)cc1 (centres undefined)

>  <Class>
Condition not met

$$$$
>  <Molecule>
CCn1c(=O)[nH]c(=O)c2c1nc(Cn1cnc3ccccc31)n2Cc1ccccc1

>  <Class>
Condition not met

$$$$
